# Tested on: panel of 24 kinases
# assay-summary: Kinase selectivity testing (percentage inhibition of 24 kinases at 1 μM)
# Format: biochemical
# run-conditions: proquinase, B_RAF V600E, 1 uM
Catalogue of % inhibiton at 1 uM B_RAF V600E values
Record the value in %, omitting the unit from your answer.

Q: Bench note: what % inhibiton at 1 uM B_RAF V600E did FC(F)(F)Oc1cccc(-n2nnc3ccc(N4CCCC5(CCCN5)CC4)nc32)c1 (centres unmarked) show?
A: 3

Q: Bench note: what % inhibiton at 1 uM B_RAF V600E did COc1cc(NCC2CCNCC2)nc2c1nnn2-c1cccc(OC(F)(F)F)c1 show?
A: 1

Q: Bench note: what % inhibiton at 1 uM B_RAF V600E did FC(F)(F)c1cccc(-n2nnc3cc(Cl)c(NCC4CCNCC4)nc32)c1 show?
A: 11

Q: Bench note: what % inhibiton at 1 uM B_RAF V600E did FC(F)(F)Oc1cccc(-n2nnc3ccc(NCC4CC5(CCNCC5)C4)nc32)c1 show?
A: 11

Q: Bench note: what % inhibiton at 1 uM B_RAF V600E did FC(F)(F)Oc1cccc(-n2nnc3cc(Cl)c(NCC4CCNCC4)nc32)c1 show?
A: 7

----------
# Test system: panel of 24 kinases
# assay-summary: Kinase selectivity testing (percentage inhibition of 24 kinases at 1 μM)
# Type: biochemical
# run-conditions: proquinase, PDGFR Alpha, 1 uM
Catalogue of % inhibiton at 1 uM PDGFR Alpha values
Record the value in %, omitting the unit from your answer.

>>> df
                                   compound          test_target                        parameter  data_value
0  COc1cc(NCC2CCNCC2)nc2c1nnn2-c1cccc(N(C)C)c1 [2-87]  panel of 24 kinases  % inhibiton at 1 uM PDGFR Alpha           0

Q: Bench note: what % inhibiton at 1 uM PDGFR Alpha did FC(F)(F)Oc1cccc(-n2nnc3ccc(NC4CC5(CCNCC5)C4)nc32)c1 [2-66] show?
A: 12

Q: Bench note: what % inhibiton at 1 uM PDGFR Alpha did COc1cc(NCC2CCNCC2)nc2c1nnn2-c1cccc(OC(F)(F)F)c1 [2-92] show?
A: 0

Q: Bench note: what % inhibiton at 1 uM PDGFR Alpha did OC1CCC(Nc2ccc3nnn(-c4cccc(OC(F)(F)F)c4)c3n2)CC1 (stereo in doubt) [2-47] show?
A: 0

Q: Bench note: what % inhibiton at 1 uM PDGFR Alpha did FC(F)(F)Oc1cccc(-n2nnc3ccc(N4CCCC5(CCCN5)CC4)nc32)c1 (centres unmarked) [2-65] show?
A: 57

Q: Bench note: what % inhibiton at 1 uM PDGFR Alpha did FC(F)(F)c1cccc(-n2nnc3cc(Cl)c(NCC4CCNCC4)nc32)c1 [2-83] show?
A: 14

Q: Bench note: what % inhibiton at 1 uM PDGFR Alpha did FC(F)(F)Oc1cccc(-n2nnc3cc(Cl)c(NCC4CCNCC4)nc32)c1 [2-54] show?
A: 23

Q: Bench note: what % inhibiton at 1 uM PDGFR Alpha did FC(F)(F)Oc1cccc(-n2nnc3ccc(NCC4CC5(CCNCC5)C4)nc32)c1 [2-67] show?
A: 49

----------
Catalogue of % inhibiton at 1 uM CHK1 values
# Tested on: panel of 24 kinases
# assay-summary: Kinase selectivity testing (percentage inhibition of 24 kinases at 1 μM)
# Type: biochemical
# run-conditions: proquinase, CHK1, 1 uM
Just the number plus its unit, please.

Look over these answered cases.
                                   compound          test_target  data_value
0  FC(F)(F)Oc1cccc(-n2nnc3ccc(N4CCCC5(CCCN5)CC4)nc32)c1 (stereo not drawn)  panel of 24 kinases          7%
1  FC(F)(F)Oc1cccc(-n2nnc3ccc(NCC4CC5(CCNCC5)C4)nc32)c1  panel of 24 kinases         11%
2  COc1cc(NCC2CCNCC2)nc2c1nnn2-c1cccc(OC(F)(F)F)c1  panel of 24 kinases          0%

Q: Bench note: what % inhibiton at 1 uM CHK1 did FC(F)(F)Oc1cccc(-n2nnc3ccc(NC4CC5(CCNCC5)C4)nc32)c1 show?
A: 13%

Q: Bench note: what % inhibiton at 1 uM CHK1 did COc1cc(NCC2CCNCC2)nc2c1nnn2-c1cccc(N(C)C)c1 show?
A: 3%

Q: Bench note: what % inhibiton at 1 uM CHK1 did FC(F)(F)c1cccc(-n2nnc3cc(Cl)c(NCC4CCNCC4)nc32)c1 show?
A: 6%
